- assay_target: D(3) dopamine receptor (Homo sapiens)
- condition_details: Compound concentration 10 µM
- Description: PDSP Primary Binding target: DRD3 - Compounds are tested at 10 uM concentration, plate are incubated at room temperature in the dark for 90 minutes. Reaction are stopped by vacuum filtration onto 0.3% polyethyleneimine soaked filter mats using Filtermate harvester. Scintilation cocktail is then melted onto microwave-dried filters on a hot plate and the radio activity is counted in Microbia counter.
Answer NO if inhibition is under 20%, and YES if it is 20% or more.

Request: Is inhibition at least 20%? Consider CS(=O)(=O)NC[C@H]1CC[C@H](Nc2nc3c(s2)CCSc2ccccc2-3)CC1
Result: YES

Request: Is inhibition at least 20%? Consider O=C(Cc1ccc(Cl)c(Cl)c1)N1CCCC[C@H]1CN1CCCC1
Result: NO

Request: Is inhibition at least 20%? Consider Cc1nn(C)c(C)c1-c1cccc2c1CC[C@H](N(C)C)C2
Result: NO

Request: Is inhibition at least 20%? Consider O=S1(=O)c2cccc3cccc(c23)N1CCCN1CCN(c2ccc(F)cc2)CC1
Result: YES

Request: Is inhibition at least 20%? Consider CCc1cc(C(C)=O)c(O)cc1OCCCCCC(C)(C)c1nn[nH]n1
Result: YES

Request: Is inhibition at least 20%? Consider OC1(c2ccc(Cl)cc2)CCN(Cc2c[nH]c3ccccc23)CC1
Result: YES

Request: Is inhibition at least 20%? Consider CCCn1c(=O)c2nc(C34CC5CC(CC3C5)C4)[nH]c2n(CCC)c1=O
Result: NO

Request: Is inhibition at least 20%? Consider CN1CC(=O)N=C1NC(=O)Nc1cccc(Cl)c1
Result: NO

Request: Is inhibition at least 20%? Consider O=C(Cc1ccccc1)Nc1nc2ccc(Cl)cc2c2nc(-c3ccco3)nn12
Result: YES

Request: Is inhibition at least 20%? Consider COc1cccc([C@H](O)C2CCN(CCc3ccc(F)cc3)CC2)c1OC
Result: NO

Request: Is inhibition at least 20%? Consider CCC(=O)NCC[C@@H]1CCc2ccc3c(c21)CCO3
Result: NO

Request: Is inhibition at least 20%? Consider CCc1cc2c(c(CC)n1)CCC(=O)N2Cc1ccc(-c2ccccc2-c2nnn[nH]2)cc1
Result: YES

Request: Is inhibition at least 20%? Consider COc1ccc2cc(S(=O)(=O)N[C@H](CC(=O)N[C@H](Cc3ccc(CN4[C@H](C)CCC[C@@H]4C)cc3)C(=O)N(C)C(C)C)c3ccc4c(c3)OCO4)ccc2c1
Result: YES

Request: Is inhibition at least 20%? Consider COc1cc(-n2cnc3cc(-c4ccc(Cl)cc4)sc3c2=O)ccc1OCCN1CCCC1
Result: YES

Request: Is inhibition at least 20%? Consider CC(C)(N)C(=O)N[C@H](COCc1ccccc1)C(=O)N1CCC2(CC1)CN(S(C)(=O)=O)c1ccccc12
Result: YES

Request: Is inhibition at least 20%? Consider O=C(O)CC1CCC2(CC1)CCN(c1cc(OC(F)(F)F)ccc1Cl)CC2
Result: YES

Request: Is inhibition at least 20%? Consider Cc1c(C2=CCN(C(=O)N(C)C(C)C)CC2)nnn1-c1cccnc1F
Result: NO

Request: Is inhibition at least 20%? Consider COc1ccc(C2(O)OC(=O)C(c3ccc4c(c3)OCO4)=C2Cc2cc(OC)c(OC)c(OC)c2)cc1 (stereo not drawn)
Result: NO

Request: Is inhibition at least 20%? Consider O=C(O)C1CN(Cc2ccc(-c3nc4cc(Cc5ccccc5F)ccc4s3)c(F)c2)C1
Result: YES

Request: Is inhibition at least 20%? Consider CNc1nc(NCc2ccc(NS(C)(=O)=O)cc2Cl)cc(-c2ccccn2)n1
Result: YES

Request: Is inhibition at least 20%? Consider N#Cc1c(N)nc(SCc2csc(-c3ccc(Cl)cc3)n2)c(C#N)c1-c1ccc(OCCO)cc1
Result: NO

Request: Is inhibition at least 20%? Consider CC1CCN(CC[C@H]2CCCN2S(=O)(=O)c2cccc(O)c2)CC1
Result: YES

Request: Is inhibition at least 20%? Consider COC(=O)C1=C(C)NC(C)=C(C(=O)OCCCN2CCC(c3ccccc3)(c3ccccc3)CC2)[C@H]1c1cccc([N+](=O)[O-])c1
Result: YES

Request: Is inhibition at least 20%? Consider CCc1cc2c(cc1CC)CC(NC[C@H](O)c1ccc(O)c3[nH]c(=O)ccc13)C2
Result: YES

Request: Is inhibition at least 20%? Consider CN[C@@H]1CCc2[nH]c3ccc(C(N)=O)cc3c2C1
Result: YES

Request: Is inhibition at least 20%? Consider N#Cc1ccc2[nH]cc(CCCCN3CCN(c4ccc5oc(C(N)=O)cc5c4)CC3)c2c1
Result: YES

Request: Is inhibition at least 20%? Consider O=c1ccn([C@@H]2O[C@H](COP(=O)(O)OP(=O)(O)OP(=O)(O)O)[C@@H](O)[C@H]2O)c(=O)[nH]1
Result: YES

Request: Is inhibition at least 20%? Consider O=c1ccc2ccc(OCCCCN3CCN(c4cccc5sccc45)CC3)cc2[nH]1
Result: YES

Request: Is inhibition at least 20%? Consider O=C(O)Cn1c(C(=O)Nc2nc(-c3ccccc3Cl)cs2)cc2ccccc21
Result: NO

Request: Is inhibition at least 20%? Consider N#Cc1cccc(C(=O)Nc2cc(-c3ccccc3)nn2-c2ccccc2)c1
Result: YES

Request: Is inhibition at least 20%? Consider CC1(C)SSC(C)(C)[C@@H](NC(=O)[C@@H](N)Cc2ccc(O)cc2)C(=O)NCC(=O)N[C@@H](Cc2ccccc2)C(=O)N[C@H]1C(=O)O
Result: NO

Request: Is inhibition at least 20%? Consider O=C(c1cc2c(cc1F)OC(c1ccc(F)cc1)(c1ccc(Cl)cc1Cl)O2)N1CCOCC1 (stereo not drawn)
Result: YES

Request: Is inhibition at least 20%? Consider CC(C)NCC(O)COc1cccc2ccccc12 (stereo not drawn)
Result: YES

Request: Is inhibition at least 20%? Consider Cc1ccc(O)c([C@H](CCN(C(C)C)C(C)C)c2ccccc2)c1
Result: YES

Request: Is inhibition at least 20%? Consider CCCCCCCCCCCCCCCCOC[C@H](COP(=O)([O-])OCC[N+](C)(C)C)OC(C)=O
Result: YES

Request: Is inhibition at least 20%? Consider O=C(O)CC/C=C\C[C@@H]1CO[C@H](c2ccccc2Cl)O[C@@H]1c1ccccc1O
Result: YES

Request: Is inhibition at least 20%? Consider Cc1csc(NC(=O)c2cc(F)cc(Oc3cncnc3)c2)n1
Result: YES

----------
- assay_target: 5-hydroxytryptamine receptor 2A (Homo sapiens) (UniProt P28223)
- Sequence (P28223 whole entry): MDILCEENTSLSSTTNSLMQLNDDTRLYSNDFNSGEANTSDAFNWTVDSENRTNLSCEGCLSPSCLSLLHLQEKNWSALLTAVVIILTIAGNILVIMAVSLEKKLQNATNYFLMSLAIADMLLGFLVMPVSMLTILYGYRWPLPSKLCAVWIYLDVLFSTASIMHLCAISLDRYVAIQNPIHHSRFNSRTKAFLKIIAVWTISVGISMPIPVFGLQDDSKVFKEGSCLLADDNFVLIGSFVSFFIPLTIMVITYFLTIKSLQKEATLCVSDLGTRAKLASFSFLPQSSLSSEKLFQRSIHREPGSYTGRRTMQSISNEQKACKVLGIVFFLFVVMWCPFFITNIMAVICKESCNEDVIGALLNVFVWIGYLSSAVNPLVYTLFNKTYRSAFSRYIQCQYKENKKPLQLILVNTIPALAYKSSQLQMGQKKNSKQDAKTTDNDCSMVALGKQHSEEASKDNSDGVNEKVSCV
- condition_details: Compound concentration 10 µM
- Description: PDSP Primary Binding target: HTR2A - Compounds are tested at 10 uM concentration, plate are incubated at room temperature in the dark for 90 minutes. Reaction are stopped by vacuum filtration onto 0.3% polyethyleneimine soaked filter mats using Filtermate harvester. Scintilation cocktail is then melted onto microwave-dried filters on a hot plate and the radio activity is counted in Microbia counter.
quantity: inhibition (%)
Quick note: give the figure in %, leave out the unit.

Request: What value of inhibition has been recorded for this entry: C[C@@H](N)Cc1c[nH]cn1
Result: -2.41

Request: What value of inhibition has been recorded for this entry: COc1cc2c(CCNC(C)=O)c[nH]c2cc1Cl
Result: -6.6

Request: What value of inhibition has been recorded for this entry: C[C@H](Cc1cc2c(c(C(N)=O)c1)N(CCCO)CC2)NCCOc1ccccc1OCC(F)(F)F
Result: 36.2

Request: What value of inhibition has been recorded for this entry: COc1cc(-n2cnc3cc(-c4ccc(Cl)cc4)sc3c2=O)ccc1OCCN1CCCC1
Result: 32.9

Request: What value of inhibition has been recorded for this entry: CCCCC#Cc1nc(NC)c2ncn([C@@H]3O[C@H](CO)[C@@H](O)[C@H]3O)c2n1
Result: 92.5

Request: What value of inhibition has been recorded for this entry: N#Cc1c(N)nc(SCc2csc(-c3ccc(Cl)cc3)n2)c(C#N)c1-c1ccc(OCCO)cc1
Result: 18.4

----------
- assay_target: 5-hydroxytryptamine receptor 3A (Homo sapiens) (UniProt P46098)
- Sequence (P46098 whole entry): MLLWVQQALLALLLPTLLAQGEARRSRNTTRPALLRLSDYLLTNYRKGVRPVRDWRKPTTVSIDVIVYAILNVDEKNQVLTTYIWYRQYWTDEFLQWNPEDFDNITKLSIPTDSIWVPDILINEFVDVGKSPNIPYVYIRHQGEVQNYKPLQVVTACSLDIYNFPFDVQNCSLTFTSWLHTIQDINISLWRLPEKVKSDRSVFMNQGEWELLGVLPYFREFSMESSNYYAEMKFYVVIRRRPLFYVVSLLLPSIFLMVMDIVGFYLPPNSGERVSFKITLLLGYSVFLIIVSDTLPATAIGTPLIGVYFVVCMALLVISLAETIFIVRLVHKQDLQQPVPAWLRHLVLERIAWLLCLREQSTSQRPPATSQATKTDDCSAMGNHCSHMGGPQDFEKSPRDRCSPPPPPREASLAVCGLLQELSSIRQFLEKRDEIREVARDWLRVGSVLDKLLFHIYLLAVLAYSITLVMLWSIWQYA
- condition_details: Compound concentration 10 µM
- Description: PDSP Primary Binding target: HTR3A - Compounds are tested at 10 uM concentration, plate are incubated at room temperature in the dark for 90 minutes. Reaction are stopped by vacuum filtration onto 0.3% polyethyleneimine soaked filter mats using Filtermate harvester. Scintilation cocktail is then melted onto microwave-dried filters on a hot plate and the radio activity is counted in Microbia counter.
quantity: inhibition (%)
Quick note: give the figure in %, leave out the unit.

Request: What value of inhibition has been recorded for this entry: CCOC(=O)c1cc(C#N)c(N2CCC(C(=O)NS(=O)(=O)Cc3ccccc3)CC2)nc1C
Result: 3.98

Request: What value of inhibition has been recorded for this entry: C[C@@H](N)Cc1c[nH]cn1
Result: 5.88

Request: What value of inhibition has been recorded for this entry: COC(=O)C1=C(C)NC(C)=C(C(=O)OCCCN2CCC(c3ccccc3)(c3ccccc3)CC2)[C@H]1c1cccc([N+](=O)[O-])c1
Result: 43.2

Request: What value of inhibition has been recorded for this entry: CCCCC#Cc1nc(NC)c2ncn([C@@H]3O[C@H](CO)[C@@H](O)[C@H]3O)c2n1
Result: 14.1

Request: What value of inhibition has been recorded for this entry: NC[C@H](O)c1ccc(O)c(O)c1
Result: -8.31

Request: What value of inhibition has been recorded for this entry: CCc1cc(C(C)=O)c(O)cc1OCCCCCC(C)(C)c1nn[nH]n1
Result: -9.38

Request: What value of inhibition has been recorded for this entry: COC1CCN(c2cccc(-c3cc(NC(C)=O)nc(-n4nc(C)cc4C)n3)n2)CC1
Result: 21.1

Request: What value of inhibition has been recorded for this entry: N#Cc1c(N)nc(SCc2csc(-c3ccc(Cl)cc3)n2)c(C#N)c1-c1ccc(OCCO)cc1
Result: 1.79

Request: What value of inhibition has been recorded for this entry: Nc1nc2c(c(N3CCNCC3)n1)CCC1=C2[C@@H]2CCCC[C@@H]2O1
Result: 98.1

Request: What value of inhibition has been recorded for this entry: Cc1cc(NC(=O)NCCN2CCC(O)(Cc3ccccc3)CC2)c2ccccc2n1
Result: 4.17

Source: ChEMBL document CHEMBL5442219
